Test system: M14 melanoma
Assay: NCI tumour cell line growth inhibition, 48 h
TGI values by entry
Measured Metric: TGI (µM)

[
  {
    "Molecule": "C=C1C(=O)OC2C3C(=C)[C@@H](OC(C)=O)CC3C(C)=CC(OC(=O)C(C)(OC(C)=O)C(C)OC(C)=O)[C@@H]12 (some centres undefined)",
    "Measurement Qualifier": "=",
    "Value Observed": 27.8
  },
  {
    "Molecule": "CCc1cc(CCC(=O)Nc2ccccc2[N+](=O)[O-])[nH]c(=S)n1",
    "Measurement Qualifier": ">",
    "Value Observed": 100
  },
  {
    "Molecule": "Cc1ccc(C(=O)/C=C/c2cccc([N+](=O)[O-])c2)cc1",
    "Measurement Qualifier": ">",
    "Value Observed": 100
  },
  {
    "Molecule": "CC(=O)c1ccc2c(c1)CC1(C2)Cc2ccc3c(c2C1=O)CCC3 (centres undefined)",
    "Measurement Qualifier": "=",
    "Value Observed": 64.8
  },
  {
    "Molecule": "C/C(=C\\c1cc(C(F)(F)F)n(-c2ccc(N)cc2)n1)[C@@H]1C[C@@H]2O[C@]2(C)CCC[C@H](C)[C@H](O)[C@@H](C)C(=O)C(C)(C)[C@@H](O)CC(=O)O1",
    "Measurement Qualifier": "=",
    "Value Observed": 0.096
  },
  {
    "Molecule": "O=c1cc(N=Nc2ccc(Cl)c(Cl)c2)[nH]c(=O)[nH]1",
    "Measurement Qualifier": "=",
    "Value Observed": 4.08
  },
  {
    "Molecule": "CCS(=O)(=O)CCn1c(=O)c2c(ncn2C)n(C)c1=O",
    "Measurement Qualifier": ">",
    "Value Observed": 100
  },
  {
    "Molecule": "CC(C)C[C@H](NC(=O)[C@H](Cc1ccc(F)cc1)NC(=O)c1ccccn1)B(O)O",
    "Measurement Qualifier": "<",
    "Value Observed": 0.0107
  },
  {
    "Molecule": "O=C1OC(C2(O)OC(=O)c3ccccc32)c2ccccc21 (centres undefined)",
    "Measurement Qualifier": ">",
    "Value Observed": 100
  }
]
